- systemTested: UniProt:A5D7B7
- Sequence (A5D7B7 whole entry): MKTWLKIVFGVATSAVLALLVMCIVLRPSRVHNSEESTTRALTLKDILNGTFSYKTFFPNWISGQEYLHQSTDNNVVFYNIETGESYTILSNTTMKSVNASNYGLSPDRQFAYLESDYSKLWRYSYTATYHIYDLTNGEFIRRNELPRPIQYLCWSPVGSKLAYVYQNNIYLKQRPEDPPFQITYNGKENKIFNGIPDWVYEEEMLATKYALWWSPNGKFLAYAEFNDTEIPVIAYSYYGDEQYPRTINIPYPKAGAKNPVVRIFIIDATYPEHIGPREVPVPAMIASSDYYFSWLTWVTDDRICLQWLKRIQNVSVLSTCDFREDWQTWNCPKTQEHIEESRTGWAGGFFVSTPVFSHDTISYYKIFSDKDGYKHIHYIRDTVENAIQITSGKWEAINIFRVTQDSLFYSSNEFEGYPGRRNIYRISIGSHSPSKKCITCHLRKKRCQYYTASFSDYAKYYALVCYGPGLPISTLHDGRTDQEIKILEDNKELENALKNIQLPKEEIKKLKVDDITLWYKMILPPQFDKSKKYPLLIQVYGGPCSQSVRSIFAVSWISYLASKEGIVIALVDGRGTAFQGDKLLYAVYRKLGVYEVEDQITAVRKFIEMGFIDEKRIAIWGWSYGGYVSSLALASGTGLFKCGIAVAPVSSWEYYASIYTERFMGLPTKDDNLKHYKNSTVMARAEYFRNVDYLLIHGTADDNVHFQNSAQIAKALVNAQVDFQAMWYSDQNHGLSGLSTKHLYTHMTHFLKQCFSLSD
- protocolDescription: Inhibition of bovine serum FAP
Records here are stratified by IC50; strata: c1 (below 20 µM), c2 (20 µM to below 50 µM), c3 (50 µM or more)

Worked set:
{"cpdSmiles": "N[C@H]1C[C@@H](N2Cc3[nH]nc(S(=O)(=O)c4ccccc4)c3C2)CO[C@@H]1c1cc(F)ccc1F", "assignedLabel": "c1"}
{"cpdSmiles": "N[C@H]1C[C@@H](N2Cc3[nH]nc(NS(=O)(=O)CC(F)(F)F)c3C2)CO[C@@H]1c1cc(F)ccc1F", "assignedLabel": "c2"}
{"cpdSmiles": "CCCS(=O)(=O)n1cc2c(n1)CN([C@H]1CO[C@H](c3cc(F)ccc3F)[C@@H](N)C1)C2", "assignedLabel": "c3"}
{"cpdSmiles": "CCC(=O)Nc1n[nH]c2c1CN([C@H]1CO[C@H](c3cc(F)ccc3F)[C@@H](N)C1)C2", "assignedLabel": "c2"}
{"cpdSmiles": "N[C@H]1C[C@@H](N2Cc3cn(S(=O)(=O)C4CC4)nc3C2)CO[C@@H]1c1cc(F)ccc1F", "assignedLabel": "c3"}
{"cpdSmiles": "N[C@H]1C[C@@H](N2Cc3cnn(S(=O)(=O)C4CC4)c3C2)CO[C@@H]1c1cc(F)ccc1F", "assignedLabel": "c3"}
{"cpdSmiles": "N[C@H]1C[C@@H](N2Cc3cnn(S(=O)(=O)C4CCCC4)c3C2)CO[C@@H]1c1cc(F)ccc1F", "assignedLabel": "c2"}
{"cpdSmiles": "CS(=O)(=O)Nc1n[nH]c2c1CN([C@H]1CO[C@H](c3cc(F)ccc3F)[C@@H](N)C1)C2", "assignedLabel": "c1"}

Band assignment needed for N[C@H]1C[C@@H](N2Cc3[nH]nc(NS(=O)(=O)c4c[nH]cn4)c3C2)CO[C@@H]1c1cc(F)ccc1F please. c1

Try the molecule N[C@H]1C[C@@H](N2Cc3cn(S(=O)(=O)c4ccccc4)nc3C2)CO[C@@H]1c1cc(F)ccc1F c3

Try the molecule CCS(=O)(=O)Nc1n[nH]c2c1CN([C@H]1CO[C@H](c3cc(F)ccc3F)[C@@H](N)C1)C2 c2

Try the molecule Cn1cnc(S(=O)(=O)n2cc3c(n2)CN([C@H]2CO[C@H](c4cc(F)ccc4F)[C@@H](N)C2)C3)c1 c3

Try the molecule N[C@H]1C[C@@H](N2Cc3cn(S(=O)(=O)C(F)(F)F)nc3C2)CO[C@@H]1c1cc(F)ccc1F c3

Try the molecule N[C@H]1C[C@@H](N2Cc3[nH]nc(NS(=O)(=O)Cc4ccncc4)c3C2)CO[C@@H]1c1cc(F)ccc1F c3

Try the molecule N[C@H]1C[C@@H](N2Cc3cn[nH]c3C2)CO[C@@H]1c1cc(F)ccc1F c3
